Reported viability, T/C values for the following molecules.
Test system: 755483-174-R-J1-PDC complex spheroid growth, percent test/control
Experiment: Anticancer human tumor 755483-174-R-J1-PDC patient-derived rhabdomyosarcoma cell line growth inhibition [Asc]
Conditions: second compound 0.316 µM; first compound 0.00949 µM; active compounds read low

Consider the following illustrative entries.
# molecule, measured value
rows = [
    ("CCN1C(C(=O)NC23CCC(C(=O)O)(CC2)CC3)C(c2cccc(Cl)c2F)C2(C(=O)Nc3cc(Cl)ccc32)C12CCCCC2 (centres undefined) + Cc1c(S(C)(=O)=O)c(-c2cc(F)cc(N3CCN(c4ccc(NS(=O)(=O)c5ccc(NC(CCN6CCC(C(=O)OCCCP(=O)(O)O)CC6)CSc6ccccc6)c(S(=O)(=O)C(F)(F)F)c5)cc4)CC3)c2)c(-c2ccc(Cl)cc2)n1C(C)C", "49%"),
    ("NC(=O)C(=Cn1cnc(-c2cc(C(F)(F)F)cc(C(F)(F)F)c2)n1)c1cncnc1 + CNC(C)C(=O)NC1CN(S(=O)(=O)c2cccc(S(=O)(=O)N3CCC4CCC(C(=O)NC(c5ccccc5)c5ccccc5)N4C(=O)C(NC(=O)C(C)NC)C3)c2)CCC2CCC(C(=O)NC(c3ccccc3)c3ccccc3)N2C1=O", "22%"),
    ("CCN1C(C(=O)NC23CCC(C(=O)O)(CC2)CC3)C(c2cccc(Cl)c2F)C2(C(=O)Nc3cc(Cl)ccc32)C12CCCCC2 (centres undefined) + CNC(C)C(=O)NC1CN(S(=O)(=O)c2cccc(S(=O)(=O)N3CCC4CCC(C(=O)NC(c5ccccc5)c5ccccc5)N4C(=O)C(NC(=O)C(C)NC)C3)c2)CCC2CCC(C(=O)NC(c3ccccc3)c3ccccc3)N2C1=O", "19.9%"),
]

// moving on: another record for viability, T/C
[in] Which measured viability, T/C belongs to Cc1nc(N2CCC3(CC2)COC(C)C3N)c(CO)nc1Sc1ccnc(N)c1Cl (centres undefined) + CNC(C)C(=O)NC1CN(S(=O)(=O)c2cccc(S(=O)(=O)N3CCC4CCC(C(=O)NC(c5ccccc5)c5ccccc5)N4C(=O)C(NC(=O)C(C)NC)C3)c2)CCC2CCC(C(=O)NC(c3ccccc3)c3ccccc3)N2C1=O , tested on 755483-174-R-J1-PDC complex spheroid growth, percent test/control?
[out] 50.1%

---

Reported viability, T/C values for the following molecules.
Test system: 755483-174-R-J1-PDC complex spheroid growth, percent test/control
Experiment: Anticancer human tumor 755483-174-R-J1-PDC cell line growth inhibition [Asc];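 note: spheroids exposed to compounds for seven days before readout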
Conditions: second compound 0.316 µM; first compound 0.00949 µM; active compounds read low

# molecule, viability, T/C
rows = [
    ("NC(=O)C(=Cn1cnc(-c2cc(C(F)(F)F)cc(C(F)(F)F)c2)n1)c1cncnc1 + Cc1c(S(C)(=O)=O)c(-c2cc(F)cc(N3CCN(c4ccc(NS(=O)(=O)c5ccc(NC(CCN6CCC(C(=O)OCCCP(=O)(O)O)CC6)CSc6ccccc6)c(S(=O)(=O)C(F)(F)F)c5)cc4)CC3)c2)c(-c2ccc(Cl)cc2)n1C(C)C", "12.9%"),
]

[in] Look at this molecule and give its reported viability, T/C. Cc1nc(N2CCC3(CC2)COC(C)C3N)c(CO)nc1Sc1ccnc(N)c1Cl (configuration not stated) + Cc1c(S(C)(=O)=O)c(-c2cc(F)cc(N3CCN(c4ccc(NS(=O)(=O)c5ccc(NC(CCN6CCC(C(=O)OCCCP(=O)(O)O)CC6)CSc6ccccc6)c(S(=O)(=O)C(F)(F)F)c5)cc4)CC3)c2)c(-c2ccc(Cl)cc2)n1C(C)C
[out] 42.4%
